Values from paper PMC2671563

Target: mS100A9 and mRAGE/hFc (Mus musculus, UniProt P31725)
Construct: purchased R&D Systems (mRAGE/Fc); S100A9 made in house
Sequence (P31725 2-113 limits assumed): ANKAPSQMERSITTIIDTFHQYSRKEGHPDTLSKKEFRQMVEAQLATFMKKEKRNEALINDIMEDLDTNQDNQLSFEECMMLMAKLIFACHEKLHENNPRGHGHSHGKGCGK
Assay: SPR: inhibition of mouse S100A9 binding to immobilised mouse RAGE
Conditions: Table S1
property_measured: pIC50
Field pIC50 (float): negative decimal logarithm of the concentration in molar.

q: Determine its reported pIC50: CCc1cccc2c1c(O)c(C(=O)N(CC)c1ccccc1)c(=O)n2C
a: 3.51

====

Target: mS100A8/A9 and mRAGE (Mus musculus)
Construct: purchased R&D Systems (mRAGE/Fc); S100A8/A9 made in house
Test: SPR: inhibition of mouse S100A8/A9 binding to mouse RAGE
Settings: read-out: S100A8-9 binding IC50, mS100A8/A9 RAGE; Table S1
IC50 strictly under 200 µM means 1 (yes); at 200 µM or over means 0 (no).

q: Please state whether IC50 is below 200 µM for CCN(C(=O)c1c(O)c2c(C)cccc2n(C)c1=O)c1ccccc1
a: 0 (no)

q: Please state whether IC50 is below 200 µM for CCN(C(=O)c1c(O)c2c(SC)cccc2n(C)c1=O)c1ccccc1
a: 1 (yes)

q: Please state whether IC50 is below 200 µM for CCN(C(=O)c1c(O)c2c(Br)cccc2n(C)c1=O)c1ccccc1
a: 1 (yes)

q: Please state whether IC50 is below 200 µM for CCN(C(=O)c1c(O)c2ccccc2n(C)c1=O)c1ccccc1
a: 0 (no)

q: Please state whether IC50 is below 200 µM for CCN(C(=O)c1c(O)c2c(C(F)(F)F)cccc2n(C)c1=O)c1ccccc1
a: 0 (no)

====

Please go through the items and note down their IC50.
Biological target: mS100A8/A9 and mLPS-Trap (Mus musculus, UniProt P31725)
Sequence (P31725 2-113 limits assumed): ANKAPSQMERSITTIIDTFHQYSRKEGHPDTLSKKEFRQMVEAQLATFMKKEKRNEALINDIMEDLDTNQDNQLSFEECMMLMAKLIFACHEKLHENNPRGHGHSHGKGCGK
Experiment: SPR: inhibition of mouse S100A8/A9 binding to mLPS-Trap
Details: Table S1; read-out: S100A8-9 binding IC50, mS100A8/A9 TLR4

q: Determine its reported IC50: CCN(C(=O)c1c(O)c2c(Br)cccc2n(C)c1=O)c1ccccc1 [ABR-215727]
a: 200 µM

q: Determine its reported IC50: CCN(C(=O)c1c(O)c2c(SC)cccc2n(C)c1=O)c1ccccc1 [ABR-215628]
a: 257 µM

q: Determine its reported IC50: CCN(C(=O)c1c(O)c2c(C(F)(F)F)cccc2n(C)c1=O)c1ccccc1 [ABR-215629]
a: 301 µM

q: Determine its reported IC50: CCN(C(=O)c1c(O)c2c(C)cccc2n(C)c1=O)c1ccccc1 [ABR-215111]
a: 293 µM

q: Determine its reported IC50: CCc1cccc2c1c(O)c(C(=O)N(CC)c1ccccc1)c(=O)n2C [ABR-215757]
a: 334 µM

q: Determine its reported IC50: CCN(C(=O)c1c(O)c2ccccc2n(C)c1=O)c1ccccc1 [ABR-212662]
a: 576 µM
